Tested on: Zika virus
Assay: Antiviral activity against Zika virus infected in human SF-268 cells assessed as inhibition of virus-induced cytopathic effect at 10 uM measured at 96 hrs MTT assay
Assay type: functional
Reported inhibition at 10 µM values follow for various compounds

[
  {
    "COMPOUND": "COC(=O)[C@]1(C)C=C2C3=CC(=O)C4[C@@]5(C)CC/C(=N\\NC(N)=O)C(C)(C)C5CC[C@@]4(C)[C@]3(C)CC[C@@]2(C)CC1 (stereo partly drawn)",
    "inhibition at 10 µM": "63%"
  },
  {
    "COMPOUND": "CC(=O)O[C@H]1CC[C@@]2(C)C(CC[C@]3(C)C2C(=O)C=C2C4C[C@@](C)(C(=O)Nc5cccnc5)CC[C@]4(C)CC[C@]23C)C1(C)C (stereo partly drawn)",
    "inhibition at 10 µM": "> 70%"
  },
  {
    "COMPOUND": "CCCCOC(=O)[C@@]1(C)CC[C@]2(C)CC[C@]3(C)C(=CC(=O)C4[C@@]5(C)CC/C(=N\\NC(N)=O)C(C)(C)C5CC[C@]43C)[C@@H]2C1 (stereo partly drawn)",
    "inhibition at 10 µM": "> 70%"
  }
]

* * *

Test: Therapeutic index, ratio of CC50 for cytotoxicity against human SF-268 cells to IC50 for antiviral activity against Zika virus infected in human SF-268 cells
Format: toxicity, cell-based
Settings: read-out: TI
// selectivity ratio lookup, one value per entry

[
  {
    "COMPOUND": "COC(=O)[C@@]1(C)CC[C@]2(C)CC[C@]3(C)C(=CC(=O)C4[C@@]5(C)Cc6snnc6C(C)(C)C5CC[C@]43C)[C@@H]2C1 (some centres undefined)",
    "selectivity ratio": "> 172"
  },
  {
    "COMPOUND": "CC(=O)O[C@H]1CC[C@@]2(C)C(CC[C@]3(C)C2C(=O)C=C2C4C[C@@](C)(C(=O)Nc5cccnc5)CC[C@]4(C)CC[C@]23C)C1(C)C (some centres undefined)",
    "selectivity ratio": "> 384"
  },
  {
    "COMPOUND": "CCCCOC(=O)[C@@]1(C)CC[C@]2(C)CC[C@]3(C)C(=CC(=O)C4[C@@]5(C)Cc6snnc6C(C)(C)C5CC[C@]43C)[C@@H]2C1 (some centres undefined)",
    "selectivity ratio": "> 89.3"
  },
  {
    "COMPOUND": "CCCCOC(=O)[C@@]1(C)CC[C@]2(C)CC[C@]3(C)C(=CC(=O)C4[C@@]5(C)CC/C(=N\\NC(N)=O)C(C)(C)C5CC[C@]43C)[C@@H]2C1 (some centres undefined)",
    "selectivity ratio": "> 90.9"
  }
]

* * *

System: Zika virus
Assay: Antiviral activity against Zika virus infected in SF-268 cells assessed as inhibition of viral infection at entry stage measured after 96 hrs by DAPI staining based fluorescence microscopic analysis
Format: functional, organism-based
Conditions: SF-268, 96 h
pIC50: −log10 of the molar value.
Reported pIC50 is given for each of the following compounds.

[
  {
    "COMPOUND": "CC(=O)O[C@H]1CC[C@@]2(C)C(CC[C@]3(C)C2C(=O)C=C2C4C[C@@](C)(C(=O)Nc5cccnc5)CC[C@]4(C)CC[C@]23C)C1(C)C (some centres undefined)",
    "TESTED_TARGET": "Zika virus",
    "pIC50": 6.17
  },
  {
    "COMPOUND": "COC(=O)[C@@]1(C)CC[C@]2(C)CC[C@]3(C)C(=CC(=O)C4[C@@]5(C)Cc6snnc6C(C)(C)C5CC[C@]43C)[C@@H]2C1 (some centres undefined)",
    "TESTED_TARGET": "Zika virus",
    "pIC50": 6.21
  },
  {
    "COMPOUND": "CCCCOC(=O)[C@@]1(C)CC[C@]2(C)CC[C@]3(C)C(=CC(=O)C4[C@@]5(C)Cc6snnc6C(C)(C)C5CC[C@]43C)[C@@H]2C1 (some centres undefined)",
    "TESTED_TARGET": "Zika virus",
    "pIC50": 6.30
  },
  {
    "COMPOUND": "CCCCOC(=O)[C@@]1(C)CC[C@]2(C)CC[C@]3(C)C(=CC(=O)C4[C@@]5(C)CC/C(=N\\NC(N)=O)C(C)(C)C5CC[C@]43C)[C@@H]2C1 (some centres undefined)",
    "TESTED_TARGET": "Zika virus",
    "pIC50": 5.96
  }
]

* * *

Test system: Zika virus
Test: Antiviral activity against Zika virus infected in human SF-268 cells assessed as inhibition of virus-induced cytopathic effect at 10 uM measured at 96 hrs MTT assay
Assay type: functional
Measured inhibition at 10 µM of individual entries

[
  {
    "COMPOUND": "COC(=O)[C@@]1(C)CC[C@]2(C)CC[C@]3(C)C(=CC(=O)C4[C@@]5(C)CC/C(=N\\NC(N)=O)C(C)(C)C5CC[C@]43C)[C@@H]2C1 (stereo partly drawn)",
    "inhibition at 10 µM": "63%"
  },
  {
    "COMPOUND": "COC(=O)[C@@]1(C)CC[C@]2(C)CC[C@]3(C)C(=CC(=O)C4[C@@]5(C)Cc6snnc6C(C)(C)C5CC[C@]43C)[C@@H]2C1 (stereo partly drawn)",
    "inhibition at 10 µM": "> 70%"
  },
  {
    "COMPOUND": "CCCCOC(=O)[C@@]1(C)CC[C@]2(C)CC[C@]3(C)C(=CC(=O)C4[C@@]5(C)Cc6snnc6C(C)(C)C5CC[C@]43C)[C@@H]2C1 (stereo partly drawn)",
    "inhibition at 10 µM": "> 70%"
  }
]
